- test: Pharmacokinetics in mice and rats (statements for both species)
- Format: in vivo
- measurementConditions: CD1 (mouse), Sprague Dawley (rat), mouse, rat, plasma, other: oral and intravenous (both routes); mice and rats; read-out: elimination half-life (converted)
endpointLabel: half-life

Qu. Read off the recorded half-life for C[C@@H]1CN(Cc2ncccn2)C[C@H]1c1cn2c(C3CCOCC3)ncc2c(=O)[nH]1 (single isomer, unassigned)
Ans. ~3 h

* * *

- test: Plasma protein binding, monkey
- Type: in vitro ADME
- measurementConditions: read-out: mean plasma fraction bound (converted)
endpointLabel: fraction unbound
Numbers only.

Qu. State its fraction unbound for this molecule: C[C@@H]1CN(Cc2ncccn2)C[C@H]1c1cn2c(C3CCOCC3)ncc2c(=O)[nH]1 (single isomer, unassigned)
Ans. 0.814
